The measurements presented in this section are drawn from PubChem BioAssay AID1918947.

System: A498 complex spheroid viability
METHOD_NOTES: Anticancer human tumor A498 cell line growth inhibition;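 also: spheroids exposed to agents for seven days before readout; 100% = DMSO vehicle-treated spheroids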
RECORDED_CONDITIONS: second compound 0.316 µM; first compound 0.1 µM; hits give low values
METRIC: viability, T/C (%)
Note: unit % is implicit; provide only the numeric part.

The measured viability, T/C that CC(C)CC(NC(=O)CNC(=O)c1cc(Cl)ccc1Cl)B1OC(=O)CC(CC(=O)O)(C(=O)O)O1 (stereo unspecified) + NC1CCC(NC2CC2c2ccccc2)CC1 showed for A498 complex spheroid viability is 2.63

The measured viability, T/C that CC[C@@]1(O)C(=O)OCc2c1cc1n(c2=O)Cc2cc3c(CN(C)C)c(O)ccc3nc2-1 + NC1CCC(NC2CC2c2ccccc2)CC1 showed for A498 complex spheroid viability is 37.4

The measured viability, T/C that COc1ccc([C@@H](O)c2cc(-c3ncnc4cc(N5CCOCC5)ccc34)c(F)cc2Cl)nn1 + NC1CCC(NC2CC2c2ccccc2)CC1 showed for A498 complex spheroid viability is 58.5

The measured viability, T/C that CC1(C)CCC(CN2CCN(c3ccc(C(=O)NS(=O)(=O)c4ccc(NCC5CCOCC5)c([N+](=O)[O-])c4)c(Oc4cnc5[nH]ccc5c4)c3)CC2)=C(c2ccc(Cl)cc2)C1 + NC1CCC(NC2CC2c2ccccc2)CC1 showed for A498 complex spheroid viability is 92.6

The measured viability, T/C that CC[C@@]1(O)C(=O)OCc2c1cc1n(c2=O)Cc2cc3c(CN(C)C)c(O)ccc3nc2-1 + NC1CC1c1ccc(-c2cccc(O)c2)cc1 showed for A498 complex spheroid viability is 33.8

The measured viability, T/C that Nc1ncn(C2CC(O)C(CO)O2)c(=O)n1 (stereo unspecified) + NC1CC1c1ccc(-c2cccc(O)c2)cc1 showed for A498 complex spheroid viability is 97.1
